- tgt: hT2R51 (Homo sapiens (Human))
- Sequence (P59533 whole entry): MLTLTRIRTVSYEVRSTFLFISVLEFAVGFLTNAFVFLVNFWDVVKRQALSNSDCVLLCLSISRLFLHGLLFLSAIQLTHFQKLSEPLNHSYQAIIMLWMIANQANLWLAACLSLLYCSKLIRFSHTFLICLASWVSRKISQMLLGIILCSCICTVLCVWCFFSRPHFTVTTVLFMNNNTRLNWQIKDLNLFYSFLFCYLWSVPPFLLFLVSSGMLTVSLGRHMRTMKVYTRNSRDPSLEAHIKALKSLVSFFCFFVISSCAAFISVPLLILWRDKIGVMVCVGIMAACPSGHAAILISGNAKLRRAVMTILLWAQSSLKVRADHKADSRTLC
- experiment-summary: hT2R panel inhibition, transient HEK293 G16g44, agonist Prop 2.5 μM
- Assay type: cell-based
- study-conditions: HEK293, compound at 25 μM; receptor activated to EC80 with the corresponding agonist; read-out: screening result against bitter receptor 51
// values below are reported inhibition at 25 µM

compound	inhibition at 25 µM
O=C(O)c1ccc(S(=O)(=O)N(Cc2ccccc2)Cc2ccccc2)cc1 [Example 5-28, 4-(N,N-dibenzylsulfamoyl)benzoic acid]	40 to 60%
COc1ccc(CN(Cc2ccccc2)S(=O)(=O)c2ccc(C(=O)O)cc2)cc1C [Example 5-89]	> 80%
O=C(O)c1ccc(CN(Cc2ccccc2F)S(=O)(=O)c2ccccc2)cc1 [Example 5-103]	20 to 40%
COc1ccc(CN(C(C)c2ccccc2)S(=O)(=O)c2ccc(C(=O)O)cc2)cc1 (centres unmarked) [Example 5-95]	20 to 40%
COc1ccc(CN(Cc2cccc(F)c2)S(=O)(=O)c2ccc(C(=O)O)cc2)cc1 [Example 5-12]	> 80%
CCc1ccc(CN(Cc2ccccc2)S(=O)(=O)c2ccc(C(=O)O)cc2)cc1 [Example 5-85]	20 to 40%
O=C(O)c1ccc(S(=O)(=O)N(Cc2ccccc2)Cc2cccc(F)c2)cc1 [Example 5-79]	> 80%
O=C(O)c1ccc(S(=O)(=O)N(Cc2ccccc2)Cc2ccc3c(c2)OCO3)cc1 [Example 5-93]	40 to 60%
COc1ccc(CCN(Cc2ccccc2)S(=O)(=O)c2ccc(C(=O)O)cc2)cc1 [Example 5-81]	20 to 40%
COc1ccc(CN(Cc2cccc(Cl)c2)S(=O)(=O)c2ccc(C(=O)O)cc2)cc1 [Example 5-14]	60 to 80%

Prompt line: Retrieve inhibition at 25 µM on hT2R51 (Homo sapiens (Human)); query COc1ccccc1CN(Cc1ccccc1)S(=O)(=O)c1ccc(C(=O)O)cc1 [Example 5-71]
Response line: 40 to 60%

Prompt line: Retrieve inhibition at 25 µM on hT2R51 (Homo sapiens (Human)); query COc1ccc(CN(Cc2ccc(C(=O)O)cc2)S(=O)(=O)c2ccccc2)cc1 [Example 5-102]
Response line: 20 to 40%

Prompt line: Retrieve inhibition at 25 µM on hT2R51 (Homo sapiens (Human)); query O=C(O)c1ccc(S(=O)(=O)N(Cc2ccccc2)Cc2ccccc2Cl)cc1 [Example 5-83]
Response line: 20 to 40%

Prompt line: Retrieve inhibition at 25 µM on hT2R51 (Homo sapiens (Human)); query COc1ccc(CN(Cc2cccc(F)c2F)S(=O)(=O)c2ccc(C(=O)O)cc2)cc1 [Example 5-33]
Response line: 40 to 60%

Prompt line: Retrieve inhibition at 25 µM on hT2R51 (Homo sapiens (Human)); query COc1ccc(CN(Cc2ccccc2Cl)S(=O)(=O)c2ccc(C(=O)O)cc2)cc1 [Example 5-68]
Response line: 20 to 40%

Prompt line: Retrieve inhibition at 25 µM on hT2R51 (Homo sapiens (Human)); query Cc1ccccc1CN(Cc1ccccc1)S(=O)(=O)c1ccc(C(=O)O)cc1 [Example 5-80]
Response line: 40 to 60%

Prompt line: Retrieve inhibition at 25 µM on hT2R51 (Homo sapiens (Human)); query COc1cccc(CN(Cc2ccc(C(=O)O)cc2)S(=O)(=O)c2ccccc2)c1 [Example 5-101]
Response line: 40 to 60%
